- Subject of test: APE1 (Homo sapiens, UniProt P27695)
- Construct: made in house
- Sequence (P27695 whole entry): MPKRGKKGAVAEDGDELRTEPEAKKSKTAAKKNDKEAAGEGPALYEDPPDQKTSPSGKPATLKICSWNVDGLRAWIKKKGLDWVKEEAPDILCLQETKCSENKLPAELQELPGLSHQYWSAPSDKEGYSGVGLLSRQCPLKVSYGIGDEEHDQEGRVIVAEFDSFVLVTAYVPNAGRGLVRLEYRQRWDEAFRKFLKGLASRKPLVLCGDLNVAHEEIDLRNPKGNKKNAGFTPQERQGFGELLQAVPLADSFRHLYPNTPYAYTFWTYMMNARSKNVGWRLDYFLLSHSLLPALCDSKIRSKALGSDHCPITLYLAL
- Assay summary: Fluorogenic kinetic qHTS APE1 incision assay (primary screen and retest of cherrypicked samples)
- Assay type: biochemical
- Condition context: initial quantitative high-throughput screen; read-out: APE1 qHTS IC50
Can you tell me IC50 for the items I'm about to list?
The reply should contain only the number, in µM.

Please report IC50 for the following molecule: CCN(CC)c1ccc(C(=C2C=CC(=[N+](CC)Cc3cccc(S(=O)(=O)[O-])c3)C=C2)c2ccc(N(CC)Cc3cccc(S(=O)(=O)O)c3)cc2)cc1 [NCGC00166058]
31.6

Please report IC50 for the following molecule: COC(=O)c1cc(NC(=O)Cc2cccs2)cc(C(=O)OC)c1 [MLS001211293]
13.4

Please report IC50 for the following molecule: O=c1cc(-c2ccc(O)cc2)oc2c(C3OCC(O)C(O)C3O)c(O)c(C3OC(CO)C(O)C(O)C3O)c(O)c12 (stereo not drawn) [MLS000876755]
19.9

* * *

- Subject of test: APE1 (Homo sapiens)
- Construct: made in house
- Assay summary: Fluorescence polarization (FP) displacement assay of APE1 binding to AP-DNA probe;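 further: TAMRA 5′-labeled duplex DNA with THF abasic site (5 nM) and APE1 (20 nM), Mg2+-free buffer, 15 min at room temperature, inhibition seen as lowered polarization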
- Condition context: read-out: FP IC50
Can you tell me IC50 for the items I'm about to list?

Please report IC50 for the following compound: Nc1c(/C=C2/C=CC(=O)C(O)=C2)c(=O)nc2sc(CC(=O)N3CCCC3)nn12
> 57 µM

Please report IC50 for the following compound: CCOC(=O)c1ccc2[nH]c(-c3ccc(S(=O)(=O)F)cc3)cc(=O)c2c1
20.4 µM

Please report IC50 for the following compound: O=C(Nc1ccc2oc(-c3ccccc3F)nc2c1)c1ccc([N+](=O)[O-])o1
> 57 µM

* * *

- Subject of test: APE1 (Homo sapiens, UniProt P27695)
- Construct: made in house
- Assay summary: Fluorogenic kinetic qHTS APE1 incision assay (primary screen and retest of cherrypicked samples);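 further: purified APE1 cleaving a fluorophore/dark-quencher labelled 17-mer duplex DNA bearing a tetrahydrofuran AP site, fluorescence rise followed kinetically over the first 2 min, inhibition normalized to controls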
- Assay type: biochemical
- Condition context: initial quantitative high-throughput screen; read-out: APE1 qHTS IC50
Reported endpoint: pIC50
Conceptually, pIC50 converts a concentration in mol/L into minus its log10.

Report the value of pIC50 obtained on APE1 (Homo sapiens, UniProt P27695) for Cc1ccc(NC(=O)CN2C(=O)N/C(=C\c3cccn3-c3cccc(C(=O)O)c3)C2=O)cc1 [MLS000686355] .
5.46

Report the value of pIC50 obtained on APE1 (Homo sapiens, UniProt P27695) for CC(C)(C)OC(=O)C[C@@H]1C/C=C\C[C@H](CC(=O)NCCO)C(=O)N2CCC[C@H]2COC1=O [MLS002320191] .
5.17

Report the value of pIC50 obtained on APE1 (Homo sapiens, UniProt P27695) for COc1cc2c(ccc3cc(OC)c(OC)c(O)c32)cc1O [MLS000863573] .
6.15

Report the value of pIC50 obtained on APE1 (Homo sapiens, UniProt P27695) for O=c1oc2c(O)c(O)cc3c(=O)oc4c(O)c(O)cc1c4c23 [NCGC00094975] .
8.00

Report the value of pIC50 obtained on APE1 (Homo sapiens, UniProt P27695) for CC1OC(OCC2OC(Oc3c(-c4ccc(O)cc4)oc4cc(O)cc(O)c4c3=O)C(O)C(O)C2O)C(O)C(O)C1O (stereo not shown) [MLS000876823] .
5.46

Report the value of pIC50 obtained on APE1 (Homo sapiens, UniProt P27695) for CN(CC(=O)Nc1c(Cl)cccc1Cl)C(=O)c1cccc(-n2cccc2)c1 [MLS001079471] .
5.38

Report the value of pIC50 obtained on APE1 (Homo sapiens, UniProt P27695) for O=S(=O)(Nc1ccccc1)c1cccc2nsnc12 [MLS000999698] .
5.12

Report the value of pIC50 obtained on APE1 (Homo sapiens, UniProt P27695) for COc1ccc(S(=O)(=O)NCCC(=O)NC2CCCCC2C)cc1[N+](=O)[O-] (stereo not shown) [MLS002251710] .
4.57

Report the value of pIC50 obtained on APE1 (Homo sapiens, UniProt P27695) for O=C(CSc1nnc(CNC(=O)c2c(F)cccc2F)o1)NCc1ccco1 [MLS001235900] .
4.97

Report the value of pIC50 obtained on APE1 (Homo sapiens, UniProt P27695) for O=C(OCC1O[C@@H](OC(=O)c2cc(O)c(O)c(O)c2)[C@@H](OC(=O)c2cc(O)c(O)c(O)c2)[C@@H](OC(=O)c2cc(O)c(O)c(O)c2)[C@@H]1OC(=O)c1cc(O)c(O)c(O)c1)c1cc(O)c(O)c(O)c1 (stereo partly shown) [MLS000574902] .
8.00
